experiment: Circular dichroism (CD) of peptides; assay type: physicochemical; settings: 20 mM Sodium Cacodylate, 20% TFE, 1.25 mg/mL; CD data given as [θ]M×10^−3
property: Ellipticity 208 nm

Asked: Please report the recorded Ellipticity 208 nm for ASNLTKAAKSLKVRVIKKTKQKQVLKVL [2nd de novo, five B(X7)B domains] .
Given back: −371

Asked: Please report the recorded Ellipticity 208 nm for LKLKSSHSIKLKVKSKQRSALVSRQKA [Peptide 6b, mPEP35 variant] .
Given back: −229

Asked: Please report the recorded Ellipticity 208 nm for TKAKIKHSVKLKAKLRIKLVKRI [Peptide 10K, five B(X7)B domains in 23 residues] .
Given back: −235

Asked: Please report the recorded Ellipticity 208 nm for KTKATVKIKNKQKSVNALKQKIVLLSK [Peptide 7c, 17x-3 variant] .
Given back: −290

Asked: Please report the recorded Ellipticity 208 nm for TKTKIKIIVKLKSKAKLRIKLVKRHKS [Peptide 8h-2, modification of mPEP35] .
Given back: −283

###

For each of the sequences below, state its Ellipticity 208 nm.
assay: Circular dichroism (CD) of peptides; format: physicochemical; settings: 20 mM Sodium Cacodylate, 1.25 mg/mL; CD data given as [θ]M×10^−3
Keep the answer to the number alone.

Asked: Please report the recorded Ellipticity 208 nm for KTKATVKIKNKQKSVNALKQKIVLLSK [Peptide 7c, 17x-3 variant] .
Given back: −131

Asked: Please report the recorded Ellipticity 208 nm for LKTKIKIIVKTKSSAKLRSKLVNSHKI [Peptide 4, 8h-2 variant] .
Given back: −112

Asked: Please report the recorded Ellipticity 208 nm for TKSKIKIVVKSKAKKLRLALVKRIKI [Peptide 6f-2, modification of mPEP35] .
Given back: −97.6

Asked: Please report the recorded Ellipticity 208 nm for ASNLTKAAKSLKVRVIKKTKQKQVLKVL [2nd de novo, five B(X7)B domains] .
Given back: −115

Asked: Please report the recorded Ellipticity 208 nm for TQLRNKYTFLARARNALAVRTKQNIKS [BHP3, designed from 42 residue peptide BH-P] .
Given back: −88.4

Asked: Please report the recorded Ellipticity 208 nm for KTKATVLIKNKQKSKNALKQKIVLLSK [Peptide 17x-3, de novo designed peptide with five B(X7)B domains] .
Given back: −135

Asked: Please report the recorded Ellipticity 208 nm for TKTKIKIIVKLKSKAKLRIKLVKRHKS [Peptide 8h-2, modification of mPEP35] .
Given back: −135

Asked: Please report the recorded Ellipticity 208 nm for TNLRNKYTFLARARANLAVRNKQNIKS [BHP4, variant of BHP3] .
Given back: −107

Asked: Please report the recorded Ellipticity 208 nm for TKAKIKHSVKLKAKLRIKLVKRI [Peptide 10K, five B(X7)B domains in 23 residues] .
Given back: −113

###

assay: Circular dichroism (CD) of peptides; type: physicochemical; details: 20 mM Sodium Cacodylate, 20% TFE, 1.25 mg/mL; CD data given as [θ]M×10^−3
For each of the sequences below, state its Ellipticity 222 nm.

Asked: Please report the recorded Ellipticity 222 nm for TKAKIKHSVKLKAKLRIKLVKRI [Peptide 10K, five B(X7)B domains in 23 residues] .
Given back: −194

Asked: Please report the recorded Ellipticity 222 nm for LKLKSSHSIKLKVKSKQRSALVSRQKA [Peptide 6b, mPEP35 variant] .
Given back: −199

Asked: Please report the recorded Ellipticity 222 nm for KTKATVLIKNKQKSKNALKQKIVLLSK [Peptide 17x-3, de novo designed peptide with five B(X7)B domains] .
Given back: −126

Asked: Please report the recorded Ellipticity 222 nm for TKTKIKIIVKLKSKAKLRIKLVKRHKS [Peptide 8h-2, modification of mPEP35] .
Given back: −249

###

assay: Circular dichroism (CD) of peptides; assay type: physicochemical; conditions: 20 mM Sodium Cacodylate, 20% TFE, 1.25 mg/mL
property: Ellipticity ratio (222 nm/208 nm)
Keep the answer to the number alone.

Asked: Please report the recorded Ellipticity ratio (222 nm/208 nm) for KTKATVKIKNKQKSVNALKQKIVLLSK [Peptide 7c, 17x-3 variant] .
Given back: 0.89

Asked: Please report the recorded Ellipticity ratio (222 nm/208 nm) for LKLKSSHSIKLKVKSKQRSALVSRQKA [Peptide 6b, mPEP35 variant] .
Given back: 0.87

Asked: Please report the recorded Ellipticity ratio (222 nm/208 nm) for TKSKIKIVVKSKAKKLRLALVKRIKI [Peptide 6f-2, modification of mPEP35] .
Given back: 0.84

Asked: Please report the recorded Ellipticity ratio (222 nm/208 nm) for KTKATVLIKNKQKSKNALKQKIVLLSK [Peptide 17x-3, de novo designed peptide with five B(X7)B domains] .
Given back: 0.72

###

test: Circular dichroism (CD) of peptides; type: physicochemical; details: 20 mM Sodium Cacodylate, 20% TFE, 1.25 mg/mL
For each of the sequences below, state its Ellipticity ratio (222 nm/208 nm).

Asked: Please report the recorded Ellipticity ratio (222 nm/208 nm) for LKTKIKIIVKTKSSAKLRSKLVNSHKI [Peptide 4, 8h-2 variant] .
Given back: 0.97

Asked: Please report the recorded Ellipticity ratio (222 nm/208 nm) for TKAKIKHSVKLKAKLRIKLVKRI [Peptide 10K, five B(X7)B domains in 23 residues] .
Given back: 0.83

Asked: Please report the recorded Ellipticity ratio (222 nm/208 nm) for ASNLTKAAKSLKVRVIKKTKQKQVLKVL [2nd de novo, five B(X7)B domains] .
Given back: 0.90

Asked: Please report the recorded Ellipticity ratio (222 nm/208 nm) for TKTKIKIIVKLKSKAKLRIKLVKRHKS [Peptide 8h-2, modification of mPEP35] .
Given back: 0.88

###

assay: Circular dichroism (CD) of peptides; format: physicochemical; conditions: 20 mM Sodium Cacodylate, 1.25 mg/mL; CD data given as [θ]M×10^−3
Class Satisfied: Ellipticity 222 nm at least -60. Class Not satisfied: Ellipticity 222 nm below -60.

Asked: Test whether the sequence TKAKIKHSVKLKAKLRIKLVKRI [Peptide 10K, five B(X7)B domains in 23 residues] records Ellipticity 222 nm of -60 or higher.
Given back: Not satisfied

Asked: Test whether the sequence TKTKIKIIVKLKSKAKLRIKLVKRHKS [Peptide 8h-2, modification of mPEP35] records Ellipticity 222 nm of -60 or higher.
Given back: Satisfied

Asked: Test whether the sequence ASNLTKAAKSLKVRVIKKTKQKQVLKVL [2nd de novo, five B(X7)B domains] records Ellipticity 222 nm of -60 or higher.
Given back: Satisfied

Asked: Test whether the sequence TKSKIKIVVKSKAKKLRLALVKRIKI [Peptide 6f-2, modification of mPEP35] records Ellipticity 222 nm of -60 or higher.
Given back: Satisfied

Asked: Test whether the sequence TNLRNKYTFLARARANLAVRNKQNIKS [BHP4, variant of BHP3] records Ellipticity 222 nm of -60 or higher.
Given back: Not satisfied

Asked: Test whether the sequence KTKATVLIKNKQKSKNALKQKIVLLSK [Peptide 17x-3, de novo designed peptide with five B(X7)B domains] records Ellipticity 222 nm of -60 or higher.
Given back: Not satisfied

Asked: Test whether the sequence TQLRNKYTFLARARNALAVRTKQNIKS [BHP3, designed from 42 residue peptide BH-P] records Ellipticity 222 nm of -60 or higher.
Given back: Not satisfied

###

Test: Circular dichroism (CD) of peptides
Type: physicochemical
Conditions: 20 mM Sodium Cacodylate, 20% TFE, 5.0 mg/mL
Method: Data is presented in ellipticity ([θ]M×10^−3) as a function of spectral wavelength (λ). Sodium cacodylate (SC), 20 mM pH 7.4, without and with 20% TFE was used to reduce phosphate related background signal and enhance detected structures. Circular dichroism (CD) data were collected in millidegrees, 0, and converted to molar ellipticity, [θ]M, and are expressed in units of deg×cm^2×dmol^−1. Scan speeds and digital integration times were 500 nm/min and 1 second, respectively. […]
property: wavelength Minimum of CD profile (nm)
Form entry: value (nm) — number only.

Asked: Please report the recorded wavelength Minimum of CD profile for KTKATVLIKNKQKSKNALKQKIVLLSK [Peptide 17x-3, de novo designed peptide with five B(X7)B domains] .
Given back: 221

Asked: Please report the recorded wavelength Minimum of CD profile for LKTKIKIIVKTKSSAKLRSKLVNSHKI [Peptide 4, 8h-2 variant] .
Given back: 224

Asked: Please report the recorded wavelength Minimum of CD profile for TQLRNKYTFLARARNALAVRTKQNIKS [BHP3, designed from 42 residue peptide BH-P] .
Given back: 226

Asked: Please report the recorded wavelength Minimum of CD profile for TKAKIKHSVKLKAKLRIKLVKRI [Peptide 10K, five B(X7)B domains in 23 residues] .
Given back: 223

Asked: Please report the recorded wavelength Minimum of CD profile for LKLKSSHSIKLKVKSKQRSALVSRQKA [Peptide 6b, mPEP35 variant] .
Given back: 224

Asked: Please report the recorded wavelength Minimum of CD profile for TKSKIKIVVKSKAKKLRLALVKRIKI [Peptide 6f-2, modification of mPEP35] .
Given back: 221

Asked: Please report the recorded wavelength Minimum of CD profile for TNLRNKYTFLARARANLAVRNKQNIKS [BHP4, variant of BHP3] .
Given back: 225

Asked: Please report the recorded wavelength Minimum of CD profile for KTKATVKIKNKQKSVNALKQKIVLLSK [Peptide 7c, 17x-3 variant] .
Given back: 224
